Assay: in vitro
Settings: Sprague-Dawley, rat, liver microsomes
metricName: CLint scaled at 0.5 h, 2 µM (mL/min/kg)

Any idea what its CLint scaled at 0.5 h, 2 µM is? The compound is C[C@@H]1CCCC[C@@H]1n1c(=O)[nH]c2cnc3[nH]ccc3c21
300

A: O=c1[nH]c2cnc3[nH]ccc3c2n1C1CCCCC1
B: O=c1[nH]c2cnc3[nH]ccc3c2n1C1CCCCCC1
C: O=c1[nH]c2cnc3[nH]ccc3c2n1CC1CCCCC1
Ranking field: CLint scaled at 0.5 h, 2 µM; order: falling. Record the ranking as a list of labels in the requested order.
C, B, A

###

Target: Tyrosine-protein kinase JAK3 (Homo sapiens)
Sequence (P52333 whole entry): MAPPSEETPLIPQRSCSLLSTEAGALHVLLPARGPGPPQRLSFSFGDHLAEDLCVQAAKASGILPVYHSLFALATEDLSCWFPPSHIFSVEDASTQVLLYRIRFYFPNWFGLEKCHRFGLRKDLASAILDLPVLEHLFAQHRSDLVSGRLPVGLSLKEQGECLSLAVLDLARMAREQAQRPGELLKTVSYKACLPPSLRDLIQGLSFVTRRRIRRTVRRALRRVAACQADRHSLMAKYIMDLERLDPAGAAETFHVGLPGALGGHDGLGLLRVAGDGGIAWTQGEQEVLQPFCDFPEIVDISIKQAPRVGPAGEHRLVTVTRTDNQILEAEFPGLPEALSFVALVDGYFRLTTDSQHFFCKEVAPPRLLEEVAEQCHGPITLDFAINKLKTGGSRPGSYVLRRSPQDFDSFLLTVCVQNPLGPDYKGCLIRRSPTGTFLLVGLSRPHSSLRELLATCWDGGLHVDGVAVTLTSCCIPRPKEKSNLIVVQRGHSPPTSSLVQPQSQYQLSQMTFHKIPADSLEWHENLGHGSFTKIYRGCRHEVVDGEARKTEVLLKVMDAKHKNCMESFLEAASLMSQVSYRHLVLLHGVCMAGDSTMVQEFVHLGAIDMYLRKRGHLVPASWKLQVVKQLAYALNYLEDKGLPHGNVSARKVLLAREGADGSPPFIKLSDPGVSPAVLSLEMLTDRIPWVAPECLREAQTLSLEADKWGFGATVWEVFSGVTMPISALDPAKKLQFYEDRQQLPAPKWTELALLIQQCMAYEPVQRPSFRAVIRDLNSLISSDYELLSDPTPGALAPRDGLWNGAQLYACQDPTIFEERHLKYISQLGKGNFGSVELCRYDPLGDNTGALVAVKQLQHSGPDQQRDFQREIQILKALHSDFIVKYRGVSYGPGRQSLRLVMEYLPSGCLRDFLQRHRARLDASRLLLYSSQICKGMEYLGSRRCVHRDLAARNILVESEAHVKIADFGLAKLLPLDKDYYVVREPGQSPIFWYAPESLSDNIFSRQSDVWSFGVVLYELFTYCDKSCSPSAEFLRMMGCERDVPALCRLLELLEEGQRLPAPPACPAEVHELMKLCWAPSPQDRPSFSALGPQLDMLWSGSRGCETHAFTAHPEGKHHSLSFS
pIC50: −log10 of the molar value.
metricName: pIC50

Recorded results for 3 molecules are shown here.
Any idea what its pIC50 is? The molecule is CC1(C)CCCCC1n1c(=O)[nH]c2cnc3[nH]ccc3c21 (stereo unspecified)
7.16

Now consider CC1CCCC(n2c(=O)[nH]c3cnc4[nH]ccc4c32)C1 (stereo unspecified) .
7.68

Now consider N#CCC(=O)N1CCC[C@@H](n2c(=O)[nH]c3cnc4[nH]ccc4c32)C1 .
7.55

I: CC1CCC(n2c(=O)[nH]c3cnc4[nH]ccc4c32)CC1 (stereo unspecified)
II: O=c1[nH]c2cnc3[nH]ccc3c2n1C1CCCC1
III: C[C@@H]1CCN(C(=O)CC#N)C[C@@H]1n1c(=O)[nH]c2cnc3[nH]ccc3c21 (racemic)
Ranking field: pIC50; order: falling. Record the ranking as a list of labels in the requested order.
III, I, II
(III: 8.96, I: 7.38, II: 6.74)
